# Test system: Streptococcus pneumoniae
# experiment summary: Antibacterial activity against Streptococcus pneumonia ATCC 49619
# Format: functional
readout name: MIC (µg/mL)
Your answer should be a plain number; it is taken to be in µg/mL.

Solved entries (count: 3):
molecule | target system | measure unit | MIC
COc1ccc2nccc(-n3cc4c(n3)CCC(NC(=O)c3ccc5c(c3)NC(=O)CS5)C4)c2n1 (stereo unspecified) | Streptococcus pneumoniae | µg/mL | 4
COc1ccc2nccc(-n3cc4c(n3)CCC(NCc3ccc5c(c3)NC(=O)CS5)C4)c2c1 (stereo unspecified) | Streptococcus pneumoniae | µg/mL | 0.5
COc1ccc2nccc(-n3cc4c(n3)CCC(NCc3ccc5c(c3)NC(=O)CS5)C4)c2n1 (stereo unspecified) | Streptococcus pneumoniae | µg/mL | 2

## Input Item under review: COc1ccc2nccc(-n3cc4c(n3)CCC(NC(=O)c3ccc5c(c3)NC(=O)CS5)C4)c2c1 (stereo unspecified) . Reported MIC?
## Output 2

## Input Item under review: COc1ccc2nccc(-n3cc4c(n3)CCN(C(=O)c3ccc5c(c3)NC(=O)CS5)CC4)c2n1 . Reported MIC?
## Output 2

## Input Item under review: COc1ccc2nccc(-n3cc4c(n3)CC(NC(=O)c3ccc5c(c3)NC(=O)CS5)CC4)c2c1 (stereo unspecified) . Reported MIC?
## Output 4

## Input Item under review: COc1ccc2nccc(-n3cc4c(n3)CCC(NCc3ccc5c(c3)OCCO5)C4)c2c1 (stereo unspecified) . Reported MIC?
## Output 0.5

## Input Item under review: COc1ccc2nccc(-n3ncc4c3CCC(NCc3ccc5c(c3)OCCO5)C4)c2c1 (stereo unspecified) . Reported MIC?
## Output 32
